targetOrTestSystem: MMP-1 (Homo sapiens)
Sequence (P03956 100-469, species assumed): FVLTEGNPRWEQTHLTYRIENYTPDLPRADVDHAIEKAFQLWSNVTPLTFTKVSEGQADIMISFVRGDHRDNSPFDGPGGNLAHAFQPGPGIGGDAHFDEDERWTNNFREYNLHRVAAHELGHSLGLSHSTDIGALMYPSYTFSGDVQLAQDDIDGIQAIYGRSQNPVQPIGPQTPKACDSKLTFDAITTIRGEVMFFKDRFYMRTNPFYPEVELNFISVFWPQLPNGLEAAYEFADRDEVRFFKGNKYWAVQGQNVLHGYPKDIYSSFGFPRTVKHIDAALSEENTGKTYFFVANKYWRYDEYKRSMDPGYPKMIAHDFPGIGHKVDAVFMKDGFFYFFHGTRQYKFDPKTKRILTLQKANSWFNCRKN
assayInfo: MMP-1 inhibitory action (Type I collagen Activity Measurement kit, FITC-labeled collagen type I)
Assay type: biochemical
testParameters: MMP-1 inhibitory action, FITC-labeled collagen type I, 37° C. for 3 hr; read-out: IC50 MMP1 (Experimental Example 2)
Item-by-item account of IC50
observationType: IC50

INSERT INTO assay_data (molecule, datavalue) VALUES
  ('C#Cc1cnn(-c2ccc(S(=O)(=O)N[C@@]3(C(=O)O)[C@H](C)[C@@H]3c3ccccc3)s2)c1', '< 1 µM'),
  ('Nc1cccc(C2CC2(NS(=O)(=O)c2ccc(-c3ccc(Cl)cc3)cc2)C(=O)O)c1 (stereo not shown)', '≥ 1 µM'),
  ('CC(=O)N1Cc2ccccc2C2(C1)CC2(NS(=O)(=O)c1ccc(-c2ccc(Cl)cc2)s1)C(=O)O (stereo not shown)', '≥ 10 µM'),
  ('O=C(NCCO)c1cccc(C2CC2(NS(=O)(=O)c2ccc(-c3ccc(Cl)cc3)s2)C(=O)O)c1 (stereo not shown)', '≥ 10 µM');

* * *

targetOrTestSystem: Recombinant Human MMP-13 (Homo sapiens)
Construct: purchased R&D systems 511-MM
assayInfo: MMP-13 inhibitory activity (MMP-13 specific fluorescent substrate with quencher)
Format: biochemical
testParameters: Recombinant Human MMP-13, fluorescent substrate, 25° C. for 1 h; read-out: IC50 MMP13 (Experimental Example 3)
observationType: IC50

INSERT INTO results (compound, targetortestsystem, observationtype, datavalue) VALUES
  ('O=C(O)[C@]1(NS(=O)(=O)c2ccc(-c3noc(C(F)(F)C(F)(F)F)n3)s2)C[C@@H]1c1ccccc1', 'Recombinant Human MMP-13 (Homo sapiens)', 'IC50', '≥ 1000 nM'),
  ('O=C(O)[C@]1(NS(=O)(=O)c2ccc(-c3ccc(Cl)cc3)s2)C[C@@H]1c1ccccc1CO', 'Recombinant Human MMP-13 (Homo sapiens)', 'IC50', '< 100 nM'),
  ('C[C@@H]1[C@H](c2ccccc2)[C@]1(NS(=O)(=O)c1ccc(-c2cc(C(F)(F)F)on2)s1)C(=O)O', 'Recombinant Human MMP-13 (Homo sapiens)', 'IC50', '< 100 nM'),
  ('CN1CCN(C(=O)CCc2ccccc2C2CC2(NS(=O)(=O)c2ccc(-c3cc(C(F)(F)F)on3)s2)C(=O)O)CC1 (stereo not shown)', 'Recombinant Human MMP-13 (Homo sapiens)', 'IC50', '< 100 nM'),
  ('O=C(O)[C@]1(NS(=O)(=O)c2ccc(-c3cccc(C(F)(F)F)c3)s2)C[C@@H]1c1ccccc1', 'Recombinant Human MMP-13 (Homo sapiens)', 'IC50', '< 1000 nM'),
  ('O=C(O)C1(NS(=O)(=O)c2ccc(-c3ccc(Cl)cc3)s2)CC1c1ccc(Br)cc1 (stereo not shown) [Example 2-202]', 'Recombinant Human MMP-13 (Homo sapiens)', 'IC50', '< 1000 nM'),
  ('CC(C)C1(c2ccccc2)CC1(NS(=O)(=O)c1ccc(-c2ccc(Cl)cc2)s1)C(=O)O (stereo not shown)', 'Recombinant Human MMP-13 (Homo sapiens)', 'IC50', '< 1000 nM');

* * *

In this section we review reported pIC50 values for a set of compounds.
targetOrTestSystem: Recombinant Human MMP-13 (Homo sapiens)
Construct: purchased R&D systems 511-MM
assayInfo: MMP-13 inhibitory activity (MMP-13 specific fluorescent substrate with quencher)
Format: biochemical
testParameters: Recombinant Human MMP-13, fluorescent substrate, 25° C. for 1 h; read-out: IC50 MMP13 (Experimental Example 3)
pIC50: −log10 of the molar value.
observationType: pIC50

INSERT INTO measurements (compound, datavalue) VALUES
  ('CN(Cc1cccnc1)c1cccc([C@H]2C[C@@]2(NS(=O)(=O)c2ccc(-c3ccc(Cl)cc3)s2)C(=O)O)c1', '> 7.00'),
  ('O=C(O)C1(CS(=O)(=O)N2CCN(c3ccc(C(F)(F)F)cn3)CC2)CC1c1ccccc1 (stereo not shown)', '> 6.00'),
  ('CCC1CC1(NS(=O)(=O)c1ccc(-c2ccc(Cl)cc2)s1)C(=O)O (stereo not shown)', '≤ 6.00'),
  ('O=C(c1ccccc1C1CC1(NS(=O)(=O)c1ccc(-c2ccc(Cl)cc2)s1)C(=O)O)N1CCOCC1 (stereo not shown)', '> 6.00'),
  ('COC(=O)Cc1cccc(C2CC2(NS(=O)(=O)c2ccc(-c3ccc(Cl)cc3)s2)C(=O)O)c1 (stereo not shown)', '> 7.00'),
  ('Cc1nc(-c2ccc(S(=O)(=O)NC3(C(=O)O)CC3c3ccccc3)s2)c(Cl)o1 (stereo not shown)', '≤ 5.00'),
  ('O=C(O)C1(NS(=O)(=O)c2ccc(-c3cc(C(F)(F)F)on3)s2)CC1c1ccccc1CCO (stereo not shown)', '> 6.00');

* * *

Entries annotated with measured IC50
targetOrTestSystem: Recombinant Human MMP-13 (Homo sapiens, UniProt P45452)
Construct: purchased R&D systems 511-MM
assayInfo: MMP-13 inhibitory activity (MMP-13 specific fluorescent substrate with quencher)
Format: biochemical
testParameters: Experimental Example 3; read-out: IC50 MMP13
observationType: IC50

INSERT INTO assay_data (compound, observationtype, datavalue) VALUES
  ('O=C(O)C1(NS(=O)(=O)c2ccc(OCc3ccc(Cl)cc3Cl)cc2)C2Cc3ccccc3C21 (stereo not drawn)', 'IC50', '≥ 1 µM'),
  ('O=C(O)C1(NS(=O)(=O)c2ccc(-c3ccc(Cl)cc3)s2)CC1(CNCc1nccs1)c1ccccc1 (stereo not drawn)', 'IC50', '< 0.1 µM'),
  ('C[C@]1(c2ccccc2)C[C@@]1(NS(=O)(=O)c1ccc(-c2ccc(Cl)c(F)c2)s1)C(=O)O', 'IC50', '< 1 µM'),
  ('COCCCC1(c2ccccc2)CC1(NS(=O)(=O)c1ccc(-n2cc(Cl)cn2)s1)C(=O)O (stereo not drawn)', 'IC50', '< 1 µM'),
  ('CC(=O)c1ccc(-c2ccc(S(=O)(=O)N[C@@]3(C(=O)O)C[C@]3(C)c3ccccc3)s2)cc1', 'IC50', '< 0.1 µM'),
  ('CC1[C@H](c2ccccc2)[C@]1(NS(=O)(=O)c1ccc(-c2cn3ccccc3n2)s1)C(=O)O (stereo partly drawn)', 'IC50', '< 0.1 µM'),
  ('Cc1cc(C2CC2(NS(=O)(=O)c2ccc(-c3cc(C(F)(F)F)on3)s2)C(=O)O)no1 (stereo not drawn) [Example 2-313]', 'IC50', '< 1 µM'),
  ('CCOC(=O)NCC1(c2ccccc2)CC1(NS(=O)(=O)c1ccc(-c2ccc(Cl)cc2)s1)C(=O)O (stereo not drawn)', 'IC50', '< 0.1 µM'),
  ('CS(=O)(=O)CC1(c2ccccc2)CC1(NS(=O)(=O)c1ccc(-c2ccc(Cl)cc2)s1)C(=O)O (stereo not drawn)', 'IC50', '< 1 µM'),
  ('COCCN(C)CC1(c2ccccc2)CC1(NS(=O)(=O)c1ccc(-c2cc(C(F)(F)F)on2)s1)C(=O)O (stereo not drawn)', 'IC50', '≥ 1 µM'),
  ('COCc1cc(-c2ccc(S(=O)(=O)N[C@@]3(C(=O)O)C[C@]3(C)c3ccccc3)s2)no1', 'IC50', '< 0.1 µM'),
  ('CC(C)N1CCN(Cc2cccc([C@H]3C[C@@]3(NS(=O)(=O)c3ccc(-c4cc(C(F)(F)F)on4)s3)C(=O)O)c2)CC1', 'IC50', '< 1 µM'),
  ('CC1[C@H](c2ccccc2)[C@]1(NS(=O)(=O)c1ccc(-c2cc(C#N)on2)s1)C(=O)O (stereo partly drawn)', 'IC50', '< 0.1 µM'),
  ('CN(CCO)C(=O)OCC1(c2ccccc2)CC1(NS(=O)(=O)c1ccc(-c2cc(C(F)(F)F)on2)s1)C(=O)O (stereo not drawn)', 'IC50', '< 1 µM'),
  ('O=C(O)[C@]1(NS(=O)(=O)c2ccc(-c3cc(C(F)(F)F)on3)o2)C[C@@H]1c1ccccc1', 'IC50', '≥ 1 µM');

* * *

As shown below, each of these compounds has a reported pIC50 value.
targetOrTestSystem: aggrecanase-1 (Homo sapiens, UniProt O75173)
Sequence (O75173 213-837): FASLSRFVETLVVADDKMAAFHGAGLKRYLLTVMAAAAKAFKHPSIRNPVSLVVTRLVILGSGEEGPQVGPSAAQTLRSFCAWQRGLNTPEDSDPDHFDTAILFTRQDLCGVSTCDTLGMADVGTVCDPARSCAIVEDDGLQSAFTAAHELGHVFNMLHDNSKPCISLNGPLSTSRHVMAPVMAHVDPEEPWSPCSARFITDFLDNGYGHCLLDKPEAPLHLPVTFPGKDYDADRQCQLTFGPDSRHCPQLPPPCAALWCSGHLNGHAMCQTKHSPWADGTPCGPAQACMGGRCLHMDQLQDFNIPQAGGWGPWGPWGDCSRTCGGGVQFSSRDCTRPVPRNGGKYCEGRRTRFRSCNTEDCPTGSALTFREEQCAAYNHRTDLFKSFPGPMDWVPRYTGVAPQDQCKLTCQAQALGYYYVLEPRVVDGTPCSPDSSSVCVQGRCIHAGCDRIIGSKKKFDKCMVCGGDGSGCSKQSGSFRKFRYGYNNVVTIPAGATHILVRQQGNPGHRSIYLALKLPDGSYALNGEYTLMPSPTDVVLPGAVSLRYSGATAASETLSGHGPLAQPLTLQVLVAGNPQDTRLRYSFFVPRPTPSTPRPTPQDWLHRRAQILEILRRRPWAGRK
assayInfo: Aggrecanase-1 inhibitory action (Particle Assay, GAG release from aggrecan-containing polyacrylamide particles)
Assay type: biochemical
testParameters: aggrecanase-1 inhibitory action; read-out: IC50 AG1 (Experimental Example 1)
pIC50: −log10 of the molar value.
observationType: pIC50

INSERT INTO assay_data (compound, observationtype, datavalue) VALUES
  ('O=C(O)[C@]1(NS(=O)(=O)c2ccc(-c3ccc(C(F)F)s3)s2)C[C@@H]1c1ccccc1', 'pIC50', '> 6.00'),
  ('O=C(O)C1(NS(=O)(=O)c2ccc(-c3ccc(Cl)cn3)s2)CC1c1cccc(Cn2cccn2)c1 (stereo not drawn)', 'pIC50', '> 7.00'),
  ('O=C(O)C1(CS(=O)(=O)N2CCN(c3ccc(C(F)(F)F)cn3)CC2)CC1c1ccccc1 (stereo not drawn)', 'pIC50', '≤ 6.00'),
  ('O=C(O)C1(NS(=O)(=O)c2ccc(-c3ccc(OC(F)(F)F)cc3)s2)CC1c1ccccc1 (stereo not drawn)', 'pIC50', '≤ 6.00'),
  ('O=C(O)CCc1ccccc1C1CC1(NS(=O)(=O)c1ccc(-c2ccc(Cl)cc2)s1)C(=O)O (stereo not drawn)', 'pIC50', '> 7.00'),
  ('Cc1ccc(-c2ccc(S(=O)(=O)N[C@@]3(C(=O)O)C[C@@H]3c3ccccc3)s2)s1', 'pIC50', '> 6.00'),
  ('CC(C)(O)COc1ccccc1C1CC1(NS(=O)(=O)c1ccc(-c2ccc(Cl)cc2)s1)C(=O)O (stereo not drawn)', 'pIC50', '> 7.00'),
  ('O=C(O)C1(NS(=O)(=O)c2ccc(-c3ccc(Cl)cc3)s2)CC1c1cccc(CNc2cccnc2)c1 (stereo not drawn)', 'pIC50', '> 7.00'),
  ('O=C(O)c1cccc([C@H]2C[C@@]2(NS(=O)(=O)c2ccc(-c3ccc(Cl)cc3)s2)C(=O)O)c1', 'pIC50', '> 7.00'),
  ('O=C(O)C1(NS(=O)(=O)c2ccc(-c3ccc(Cl)cc3)s2)CC1c1ccccc1O (stereo not drawn)', 'pIC50', '> 7.00'),
  ('O=C(O)[C@]1(NS(=O)(=O)c2ccc3c(c2)Cc2cc(Cl)ccc2-3)C[C@@H]1c1ccccc1', 'pIC50', '> 7.00'),
  ('O=C(CO)Nc1cccc(C2CC2(NS(=O)(=O)c2ccc(-c3ccc(Cl)cc3)cc2)C(=O)O)c1 (stereo not drawn)', 'pIC50', '> 6.00'),
  ('O=C(O)[C@]1(NS(=O)(=O)c2ccc(-c3ccc(Cl)cn3)s2)C[C@@H]1c1ccccc1', 'pIC50', '> 7.00'),
  ('O=C(O)[C@]1(NS(=O)(=O)c2ccc(-c3cc(-c4ccccc4)on3)s2)C[C@@H]1c1ccccc1', 'pIC50', '≤ 6.00'),
  ('CCCNC(=O)c1ccc(S(=O)(=O)NC2(C(=O)O)CC2c2ccccc2)s1 (stereo not drawn)', 'pIC50', '≤ 5.00'),
  ('O=C(O)C1(NS(=O)(=O)c2ccc(Cl)s2)CC1c1ccccc1 (stereo not drawn)', 'pIC50', '≤ 5.00'),
  ('O=C(O)C1(NS(=O)(=O)N2CC(Oc3ccc(Cl)cc3)C2)CC1c1ccccc1 (stereo not drawn)', 'pIC50', '≤ 5.00'),
  ('O=C(O)[C@]1(NS(=O)(=O)c2ccc(-c3noc(C(F)(F)F)n3)s2)C[C@@H]1c1ccccc1', 'pIC50', '≤ 6.00'),
  ('C[C@]1(c2ccccc2)C[C@@]1(NS(=O)(=O)c1ccc(-c2cc(C(F)(F)C(F)(F)F)on2)s1)C(=O)O', 'pIC50', '> 6.00'),
  ('O=C(OCCCc1cccc(C2CC2(NS(=O)(=O)c2ccc(-c3cc(C(F)(F)F)on3)s2)C(=O)O)c1)N1CCOCC1 (stereo not drawn)', 'pIC50', '> 7.00'),
  ('CC(=O)N1CC=C(c2ccc(S(=O)(=O)N[C@@]3(C(=O)O)C[C@@H]3c3ccccc3)s2)CC1', 'pIC50', '≤ 6.00'),
  ('O=C(O)[C@]1(NS(=O)(=O)c2ccc(-c3csc4ccccc34)s2)C[C@@H]1c1ccccc1', 'pIC50', '≤ 6.00'),
  ('O=C(CN1CCOCC1)Nc1cccc(C2CC2(NS(=O)(=O)c2ccc(-c3ccc(Cl)cc3)s2)C(=O)O)c1 (stereo not drawn)', 'pIC50', '> 6.00'),
  ('O=C(O)C1(NS(=O)(=O)c2ccc(-c3ccc(Cl)cc3)s2)CC1(CCCN1CCOCC1)c1ccccc1 (stereo not drawn)', 'pIC50', '> 7.00'),
  ('CCc1cc(-c2ccc(S(=O)(=O)N[C@@]3(C(=O)O)C[C@@H]3c3ccccc3)s2)no1', 'pIC50', '> 7.00'),
  ('C#Cc1cnn(-c2ccc(S(=O)(=O)N[C@@]3(C(=O)O)[C@H](C)[C@@H]3c3ccccc3)s2)c1', 'pIC50', '> 7.00'),
  ('COc1ccccc1C1CC1(NS(=O)(=O)c1ccc(-c2ccc(Cl)cc2)cc1)C(=O)O (stereo not drawn)', 'pIC50', '> 6.00'),
  ('CC(=O)c1ccc(S(=O)(=O)NC2(C(=O)O)CC2c2ccccc2)s1 (stereo not drawn)', 'pIC50', '≤ 6.00'),
  ('O=C(O)C1(NS(=O)(=O)N2CCc3nc(-c4ccccc4)ncc3C2)CC1c1ccccc1 (stereo not drawn)', 'pIC50', '≤ 5.00'),
  ('C[C@@H]1[C@H](c2ccccc2)[C@]1(NS(=O)(=O)c1ccc(-c2cc(C(C)(F)F)on2)s1)C(=O)O', 'pIC50', '> 7.00');

Data origin, for the record: patent US20080261994A1
